Where do the numbers come from? From paper PMC9105526.

Target: T1, MBP-SelU (tRNA 2-selenouridine synthase) (Escherichia coli, UniProt P33667 1-364)
T1 sequence: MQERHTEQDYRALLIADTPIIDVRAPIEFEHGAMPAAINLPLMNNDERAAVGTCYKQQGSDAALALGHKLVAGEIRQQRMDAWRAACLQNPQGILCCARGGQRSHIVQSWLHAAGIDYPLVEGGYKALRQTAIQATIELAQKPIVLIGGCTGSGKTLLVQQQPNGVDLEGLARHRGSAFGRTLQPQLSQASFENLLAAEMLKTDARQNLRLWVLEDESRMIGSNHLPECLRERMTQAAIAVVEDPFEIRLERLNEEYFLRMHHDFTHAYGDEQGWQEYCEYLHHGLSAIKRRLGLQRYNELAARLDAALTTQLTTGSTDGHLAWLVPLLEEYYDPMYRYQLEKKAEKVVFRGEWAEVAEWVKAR
Test: MST (initial fluorescence); 10 mM Mg2+; MST: 2x assay buffer 20 mM Tricine pH 7.2, 20 mM MgCl2, 0.1% Tween-20 mixed with RNA (about 10 mM Tricine, 10 mM MgCl2, 0.05% Tween-20 final if 1:1); Cy3-RNA 50-75 nM; 30 min at room temperature, measured at 22 C
Settings: protein: recombinant; tags: N-terminal MBP (42 kDa, pMAL-c5x); label: 5'-Cy3; hairpin, 7-nt loop CUUUUAA
measure_name: pKd
One number for each entry, as −log10 of the molar value.

query: Which pKd value belongs to GUUGACUUUUAAUCAAC (structured_RNA) [Cy3-U(34)-RNALys] ?
result: 4.59
